Consider the following compounds and their measured log10 Ki readings.
Target Or System: Adrenergic receptor alpha-2 (Rattus norvegicus, UniProt P22086+P19328+P22909)
Test Name: Binding affinity at alpha-2 adrenergic receptors of rat.
Format: protein assay
Heads up: the numbers are on a log10 scale; they represent Ki in µM.

See these solved cases before continuing.
Task: Which log10 Ki value belongs to Cn1c2c(c3ccccc31)CCNCC2 [PNU-22394] ?
Result: -0.38

Task: Look up log10 Ki: Brc1ccc2[nH]c3c(c2c1)CCNC3
Result: 1.06

---
Task: Query (compound): c1ccc2c3c([nH]c2c1)CCNC3 ; field requested: log10 Ki
Result: -0.22

Task: Requested read-out: log10 Ki. Entry: Brc1ccc2c3c([nH]c2c1)C=NCC3
Result: 1.03

Task: I'd like to know its log10 Ki. The compound in question is Brc1ccc2[nH]c3c(c2c1)CCN=C3
Result: 0.72

Task: What measured log10 Ki goes with COc1ccc2[nH]c3c(c2c1)CCN=C3 ?
Result: 0.34

Task: I'd like to know its log10 Ki. The compound in question is COc1ccc2[nH]c3c(c2c1)CCNC3
Result: 0.89
